These measurements were taken from patent US10058516B2.

- assayExplanation: Cytotoxicity in Vero118 cells (NL63 assay, cell viability scored microscopically)
- conditionDescription: African green monkey, Vero118 cells, CC50: Cytotoxic concentration showing 50% inhibition of cell survival, Vero118 (HCoV-NL63 assay)
measurementLabel: CC50 at 5 days

molecule="COc1nc(N)ncc1-c1cn(COCCO)cn1 [Compound 2]" result="> 100 µM"
molecule="OCCOCn1cnc(-c2cnc(O)nc2O)c1 [Compound 1]" result="> 200 µM"
molecule="Nc1ncc(-c2cn(COCCO)cn2)c(O)n1 [Compound 3]" result="> 200 µM"

Alright, here's another molecule for you.
// returns reported CC50 at 5 days for input Nc1nc2c(ncn2COCCO)c(=O)[nH]1 [Acyclovir, acyclovir, reference compound]
> 100 µM
